Measured values drawn from paper doi:10.1101/442434v2 for this set.

Target: AtG6PDH2 (Arabidopsis thaliana)
Sequence (Q9FY99 1-596 limits assumed): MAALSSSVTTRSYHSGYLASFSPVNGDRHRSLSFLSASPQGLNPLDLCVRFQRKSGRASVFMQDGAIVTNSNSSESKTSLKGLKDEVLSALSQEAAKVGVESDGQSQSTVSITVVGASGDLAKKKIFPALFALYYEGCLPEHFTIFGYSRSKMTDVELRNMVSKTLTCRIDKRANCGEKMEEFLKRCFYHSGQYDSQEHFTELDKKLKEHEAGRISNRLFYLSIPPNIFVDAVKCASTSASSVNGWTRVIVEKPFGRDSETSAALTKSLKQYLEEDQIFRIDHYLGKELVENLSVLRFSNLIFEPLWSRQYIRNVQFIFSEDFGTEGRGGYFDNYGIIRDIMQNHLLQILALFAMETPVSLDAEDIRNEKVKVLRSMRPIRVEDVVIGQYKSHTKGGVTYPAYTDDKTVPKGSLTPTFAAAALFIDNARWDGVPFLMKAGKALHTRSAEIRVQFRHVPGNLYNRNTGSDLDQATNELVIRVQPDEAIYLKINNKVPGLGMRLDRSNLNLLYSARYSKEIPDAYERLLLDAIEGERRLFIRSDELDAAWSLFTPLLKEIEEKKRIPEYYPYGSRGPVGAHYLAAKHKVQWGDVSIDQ
property label: Ki

What value of Ki has been reported for the following molecule? NC(=O)C1=CN([C@@H]2O[C@H](COP(=O)(O)OP(=O)(O)OC[C@H]3O[C@@H](n4cnc5c(N)ncnc54)[C@H](OP(=O)(O)O)[C@@H]3O)[C@@H](O)[C@H]2O)C=CC1 [NADPH] 900 nM
